From: paper PMC6010013

# System: Aspergillus niger
MIC strictly under 20 µg/mL means class 1; at 20 µg/mL or over means class 0.

Problem: Is it true that MIC reported for C[N+](CCO)(CCO)CCCCCCCCCCSc1nnc(-c2ccc(C(F)(F)F)cc2)o1.[Br-] is less than 20 µg/mL?
Solution: class 1

Problem: Is it true that MIC reported for C[N+](CCO)(CCO)CCCCCCCCCCSc1nnc(-c2ccc(F)cc2)o1 is less than 20 µg/mL?
Solution: class 0

Problem: Is it true that MIC reported for C[N+](CCO)(CCO)CCCCCCSc1nnc(-c2ccc(F)cc2)o1 is less than 20 µg/mL?
Solution: class 0

Problem: Is it true that MIC reported for C[N+](CCO)(CCO)CCCCCCCCCCCCSc1nnc(-c2ccccc2)o1 [Compound 2, reference compound] is less than 20 µg/mL?
Solution: class 1

Problem: Is it true that MIC reported for C[N+](CCO)(CCO)CCCCCCCCSc1nnc(-c2ccc(C(F)(F)F)cc2)o1 is less than 20 µg/mL?
Solution: class 1

Problem: Is it true that MIC reported for C[N+](CCO)(CCO)CCCCCCCCCCCCSc1nnc(-c2ccc(C(F)(F)F)cc2)o1.[Br-] is less than 20 µg/mL?
Solution: class 1

Problem: Is it true that MIC reported for C[N+](CCO)(CCO)CCCCCCSc1nnc(-c2ccc(C(F)(F)F)cc2)o1 is less than 20 µg/mL?
Solution: class 0

Problem: Is it true that MIC reported for C[N+](CCO)(CCO)CCCCCCCCCCCCSc1nnc(-c2ccc(F)cc2)o1 is less than 20 µg/mL?
Solution: class 0

Problem: Is it true that MIC reported for [H]/N=C(\N/C(=N/[H])NCCCCCCNC(=N)NC(=N)Nc1ccc(Cl)cc1)Nc1ccc(Cl)cc1 [CA, chlorhexidine acetate, reference compound] is less than 20 µg/mL?
Solution: class 1

====

# ASSAY PROTOCOL: Haemolysis assay
# Assay type: cell-based
# CONDITION DETAILS: human red blood cells (erythrocyte suspension), 6.25 μg/mL, 1 h at 37 ℃, read-out: Haemolysis rate
# Experimental: The surfactant may be absorbed and penetrate to the cell membrane, where it makes osmotic phenomena by altering the permeability of membrane, which in turn causes the cellular lysis. Haemolysis assay gives quantitative estimation about haemoglobin release when red blood cells are treated with QASs. Haemolytic assay of QASs at different concentration was carried out in Table 4. […] For 5a-b, 6a-b, 10a-c, 13a-b, and 16a-d, their safe concentration can more than 100 μg/mL. […]
Classification field: enter satisfied for hemolysis at 1 h, 6.25 μg/mL values not below 0.4%, not satisfied for values below it.

Problem: Reported hemolysis at 1 h, 6.25 μg/mL at or above 0.4%? C[N+](CCO)(CCO)CCCCCCCCCCCCSc1nc2ccccc2s1 [Compound 13d]
Solution: satisfied

Problem: Reported hemolysis at 1 h, 6.25 μg/mL at or above 0.4%? C[N+](CCO)(CCO)CCCCCCSc1nnc(-c2ccc(F)cc2)o1 [Compound 5a]
Solution: not satisfied

Problem: Reported hemolysis at 1 h, 6.25 μg/mL at or above 0.4%? C[N+](CCO)(CCO)CCCCCCCCSc1nnc(-c2ccc(C(F)(F)F)cc2)o1 [Compound 6b]
Solution: not satisfied

Problem: Reported hemolysis at 1 h, 6.25 μg/mL at or above 0.4%? C[N+](CCO)(CCO)CCCCCCCCCCCCSc1nnc(-c2ccccc2)o1 [Compound 2, reference compound]
Solution: not satisfied

Problem: Reported hemolysis at 1 h, 6.25 μg/mL at or above 0.4%? C[N+](CCO)(CCO)CCCCCCSc1nnc(-c2ccc(C(F)(F)F)cc2)o1 [Compound 6a]
Solution: not satisfied

Problem: Reported hemolysis at 1 h, 6.25 μg/mL at or above 0.4%? C[N+](CCO)(CCO)CCCCCCCCCCCCSc1nnc(-c2ccc(F)cc2)o1 [Compound 5d]
Solution: satisfied

Problem: Reported hemolysis at 1 h, 6.25 μg/mL at or above 0.4%? C[N+](CCO)(CCO)CCCCCCCCCCCCSc1nnc(-c2ccc(C(F)(F)F)cc2)o1.[Br-] [Compound 6d]
Solution: satisfied

Problem: Reported hemolysis at 1 h, 6.25 μg/mL at or above 0.4%? C[N+](CCO)(CCO)CCCCCCCCCCSc1nnc(-c2ccc(F)cc2)o1 [Compound 5c]
Solution: satisfied

Problem: Reported hemolysis at 1 h, 6.25 μg/mL at or above 0.4%? C[N+](CCO)(CCO)CCCCCCCCCCSc1nnc(-c2ccc(C(F)(F)F)cc2)o1.[Br-] [Compound 6c]
Solution: satisfied

Problem: Reported hemolysis at 1 h, 6.25 μg/mL at or above 0.4%? [H]/N=C(\N/C(=N/[H])NCCCCCCNC(=N)NC(=N)Nc1ccc(Cl)cc1)Nc1ccc(Cl)cc1 [CA, chlorhexidine acetate, reference compound]
Solution: satisfied

====

# ASSAY PROTOCOL: Haemolysis assay
# Type: cell-based
# CONDITION DETAILS: human red blood cells (erythrocyte suspension), 100.00 μg/mL, 1 h at 37 ℃, read-out: Haemolysis rate
Assign hemolysis at 1 h, 100 μg/mL to each entry below.
Record the result as number plus unit.

Problem: Would you mind telling me what hemolysis at 1 h, 100 μg/mL value was observed for C[N+](CCO)(CCO)CCCCCCSc1nnc(-c2ccc(C(F)(F)F)cc2)o1 [Compound 6a] ?
Solution: 3.38%

Problem: Would you mind telling me what hemolysis at 1 h, 100 μg/mL value was observed for C[N+](CCO)(CCO)CCCCCCSc1nnc(-c2ccc(F)cc2)o1 [Compound 5a] ?
Solution: 3.25%

Problem: Would you mind telling me what hemolysis at 1 h, 100 μg/mL value was observed for C[N+](CCO)(CCO)CCCCCCCCCCCCSc1nnc(-c2ccc(F)cc2)o1 [Compound 5d] ?
Solution: 32.4%

====

# Tested on: β-H-tococcus
# ASSAY PROTOCOL: MBC, agar plating of dilutions without growth
# Type: cell-based
# CONDITION DETAILS: 99.9% bactericidal, read-out: Minimal bactericidal concentration (MBC)
READOUT TYPE: MBC (µg/mL)
Give the value, in units of µg/mL, as a plain number.

Problem: Would you mind telling me what MBC value was observed for C[N+](CCO)(CCO)CCCCCCSc1nnc(-c2ccc(F)cc2)o1 [Compound 5a] ?
Solution: 25

Problem: Would you mind telling me what MBC value was observed for C[N+](CCO)(CCO)CCCCCCSc1nnc(-c2ccc(C(F)(F)F)cc2)o1 [Compound 6a] ?
Solution: 25

Problem: Would you mind telling me what MBC value was observed for C[N+](CCO)(CCO)CCCCCCCCCCSc1nnc(-c2ccc(C(F)(F)F)cc2)o1.[Br-] [Compound 6c] ?
Solution: 6.25

====

Assign melting point to each entry below.
Where a name gives a salt, the structure may show the parent alone.

Problem: Would you mind telling me what melting point value was observed for Cc1nnc(SCCCCCCCCCC[N+](C)(CCO)CCO)s1 (as salt: bromide) [Compound 16c] ?
Solution: 77 to 78 °C

Problem: Would you mind telling me what melting point value was observed for C[N+](CCO)(CCO)CCCCCCCCCCCCSc1nc2ccccc2o1 (as salt: bromide) [Compound 10d] ?
Solution: 125 to 127 °C

Problem: Would you mind telling me what melting point value was observed for C[N+](CCO)(CCO)CCCCCCCCCCCCSc1nnc(-c2ccc(F)cc2)o1 (as salt: bromide) [Compound 5d] ?
Solution: 98 to 100 °C

Problem: Would you mind telling me what melting point value was observed for C[N+](CCO)(CCO)CCCCCCCCCCSc1nnc(-c2ccc(C(F)(F)F)cc2)o1.[Br-] [Compound 6c] ?
Solution: 102 to 103 °C

Problem: Would you mind telling me what melting point value was observed for C[N+](CCO)(CCO)CCCCCCSc1nc2ccccc2s1 (as salt: bromide) [Compound 13a] ?
Solution: 142 to 143 °C

Problem: Would you mind telling me what melting point value was observed for C[N+](CCO)(CCO)CCCCCCCCSc1nnc(-c2ccc(F)cc2)o1 (as salt: bromide) [Compound 5b] ?
Solution: 81 to 82 °C

Problem: Would you mind telling me what melting point value was observed for C[N+](CCO)(CCO)CCCCCCCCCCSc1nnc(-c2ccc(F)cc2)o1 (as salt: bromide) [Compound 5c] ?
Solution: 102 to 103 °C

====

# Test system: E. coli
# ASSAY PROTOCOL: MBC, agar plating of dilutions without growth
# Assay type: cell-based
# CONDITION DETAILS: Escherichia coli, 99.9% bactericidal, read-out: Minimal bactericidal concentration (MBC)
READOUT TYPE: MBC

Problem: Would you mind telling me what MBC value was observed for C[N+](CCO)(CCO)CCCCCCSc1nnc(-c2ccc(C(F)(F)F)cc2)o1 ?
Solution: 50 µg/mL

Problem: Would you mind telling me what MBC value was observed for C[N+](CCO)(CCO)CCCCCCCCCCCCSc1nnc(-c2ccc(F)cc2)o1 ?
Solution: 25 µg/mL

Problem: Would you mind telling me what MBC value was observed for C[N+](CCO)(CCO)CCCCCCCCCCCCSc1nnc(-c2ccc(C(F)(F)F)cc2)o1.[Br-] ?
Solution: 25 µg/mL

Problem: Would you mind telling me what MBC value was observed for C[N+](CCO)(CCO)CCCCCCCCCCCCSc1nnc(-c2ccccc2)o1 [Compound 2, reference compound] ?
Solution: 50 µg/mL

Problem: Would you mind telling me what MBC value was observed for C[N+](CCO)(CCO)CCCCCCCCCCSc1nnc(-c2ccc(F)cc2)o1 ?
Solution: 50 µg/mL

Problem: Would you mind telling me what MBC value was observed for [H]/N=C(\N/C(=N/[H])NCCCCCCNC(=N)NC(=N)Nc1ccc(Cl)cc1)Nc1ccc(Cl)cc1 [CA, chlorhexidine acetate, reference compound] ?
Solution: 12.5 µg/mL

Problem: Would you mind telling me what MBC value was observed for C[N+](CCO)(CCO)CCCCCCCCCCCCSc1nc2ccccc2s1 [Compound 13d] ?
Solution: 25 µg/mL

Problem: Would you mind telling me what MBC value was observed for C[N+](CCO)(CCO)CCCCCCCCCCSc1nnc(-c2ccc(C(F)(F)F)cc2)o1.[Br-] ?
Solution: 25 µg/mL

Problem: Would you mind telling me what MBC value was observed for C[N+](CCO)(CCO)CCCCCCCCSc1nnc(-c2ccc(C(F)(F)F)cc2)o1 ?
Solution: 50 µg/mL

Problem: Would you mind telling me what MBC value was observed for C[N+](CCO)(CCO)CCCCCCSc1nnc(-c2ccc(F)cc2)o1 ?
Solution: 100 µg/mL
